Just for reference, patent US6110965A is where these values come from.

System: Escherichia coli ATCC 25922
value.type: MIC (µg/mL)
Your answer should be a plain number; it is taken to be in µg/mL.

Example entries and their recorded answers appear below.
[
  {
    "molecule": "CC[C@H]1OC(=O)[C@H](C)[C@@H](O[C@H]2C[C@@](C)(OC)[C@@H](O)[C@H](C)O2)[C@H](C)[C@@H](O[C@@H]2O[C@H](C)C[C@H](N(C)C)[C@H]2O)[C@](C)(OC)C[C@@H](C)NC(=O)[C@H](C)[C@@H](O)[C@]1(C)O [Example 3, 6-O-methyl-8a-aza-8a-homoerythromycin A]",
    "unit.abbrev": "µg/mL",
    "value": 8
  },
  {
    "molecule": "CC[C@H]1OC(=O)[C@H](C)[C@@H](O[C@H]2C[C@@](C)(OC)[C@@H](O)[C@H](C)O2)[C@H](C)[C@@H](O[C@@H]2O[C@H](C)C[C@H](N(C)C)[C@H]2O)[C@](C)(O)C[C@@H](C)C(=O)[C@H](C)[C@@H](O)[C@]1(C)O [Er, erythromycin A]",
    "unit.abbrev": "µg/mL",
    "value": 32
  },
  {
    "molecule": "CC[C@H]1OC(=O)[C@H](C)[C@@H](O[C@H]2C[C@@](C)(OC)[C@@H](O)[C@H](C)O2)[C@H](C)[C@@H](O[C@@H]2O[C@H](C)C[C@H](N(C)C)[C@H]2O)[C@](C)(OC)C[C@@H](C)C(=O)[C@H](C)[C@@H](O)[C@]1(C)O [Cl, 6-O-methyl-erythromycin A]",
    "unit.abbrev": "µg/mL",
    "value": 32
  }
]

Continue with the next molecule.
Problem: Reported MIC, molecule CC[C@H]1OC(=O)[C@H](C)[C@@H](O[C@H]2C[C@@](C)(OC)[C@@H](O)[C@H](C)O2)[C@H](C)[C@@H](O[C@@H]2O[C@H](C)C[C@H](N(C)C)[C@H]2O)[C@](C)(O)C[C@@H](C)CN(C)[C@H](C)[C@@H](O)[C@]1(C)O [Az] : ____
Result: 2

----------
System: Clostridium perfringens ATCC 13124
assay: microbe, parasite or virus in culture
Assay type: cell-based
measurement.context: ATCC13124, read-out: Antibacterial in vitro action (MIC, mg/l)
value.type: MIC (mg/L)
Your answer should be a plain number; it is taken to be in mg/L.

[
  {
    "compound": "CC[C@H]1OC(=O)[C@H](C)[C@@H](O[C@H]2C[C@@](C)(OC)[C@@H](O)[C@H](C)O2)[C@H](C)[C@@H](O[C@@H]2O[C@H](C)C[C@H](N(C)C)[C@H]2O)[C@](C)(O)C[C@@H](C)CN(C)[C@H](C)[C@@H](O)[C@]1(C)O [Az]",
    "value.type": "MIC",
    "unit.abbrev": "mg/L",
    "value": 0.125
  },
  {
    "compound": "CC[C@H]1OC(=O)[C@H](C)[C@@H](O[C@H]2C[C@@](C)(OC)[C@@H](O)[C@H](C)O2)[C@H](C)[C@@H](O[C@@H]2O[C@H](C)C[C@H](N(C)C)[C@H]2O)[C@](C)(OC)C[C@@H](C)NC(=O)[C@H](C)[C@@H](O)[C@]1(C)O [Example 3, 6-O-methyl-8a-aza-8a-homoerythromycin A]",
    "value.type": "MIC",
    "unit.abbrev": "mg/L",
    "value": 0.25
  },
  {
    "compound": "CC[C@H]1OC(=O)[C@H](C)[C@@H](O[C@H]2C[C@@](C)(OC)[C@@H](O)[C@H](C)O2)[C@H](C)[C@@H](O[C@@H]2O[C@H](C)C[C@H](N(C)C)[C@H]2O)[C@](C)(OC)C[C@@H](C)C(=O)[C@H](C)[C@@H](O)[C@]1(C)O [Cl, 6-O-methyl-erythromycin A]",
    "value.type": "MIC",
    "unit.abbrev": "mg/L",
    "value": 0.125
  }
]

Problem: Reported MIC, compound CC[C@H]1OC(=O)[C@H](C)[C@@H](O[C@H]2C[C@@](C)(OC)[C@@H](O)[C@H](C)O2)[C@H](C)[C@@H](O[C@@H]2O[C@H](C)C[C@H](N(C)C)[C@H]2O)[C@](C)(O)C[C@@H](C)C(=O)[C@H](C)[C@@H](O)[C@]1(C)O [Er, erythromycin A] : ____
Result: 0.5

----------
MIC tested on Shigella flexneri ATCC 12022: recorded values
Your answer should be a plain number; it is taken to be in µg/mL.

Example entries and their recorded answers appear below.
[
  {
    "chem.smiles": "CC[C@H]1OC(=O)[C@H](C)[C@@H](O[C@H]2C[C@@](C)(OC)[C@@H](O)[C@H](C)O2)[C@H](C)[C@@H](O[C@@H]2O[C@H](C)C[C@H](N(C)C)[C@H]2O)[C@](C)(O)C[C@@H](C)CN(C)[C@H](C)[C@@H](O)[C@]1(C)O",
    "MIC / µg/mL": 1
  },
  {
    "chem.smiles": "CC[C@H]1OC(=O)[C@H](C)[C@@H](O[C@H]2C[C@@](C)(OC)[C@@H](O)[C@H](C)O2)[C@H](C)[C@@H](O[C@@H]2O[C@H](C)C[C@H](N(C)C)[C@H]2O)[C@](C)(O)C[C@@H](C)C(=O)[C@H](C)[C@@H](O)[C@]1(C)O",
    "MIC / µg/mL": 32
  },
  {
    "chem.smiles": "CC[C@H]1OC(=O)[C@H](C)[C@@H](O[C@H]2C[C@@](C)(OC)[C@@H](O)[C@H](C)O2)[C@H](C)[C@@H](O[C@@H]2O[C@H](C)C[C@H](N(C)C)[C@H]2O)[C@](C)(OC)C[C@@H](C)C(=O)[C@H](C)[C@@H](O)[C@]1(C)O",
    "MIC / µg/mL": 32
  }
]

Problem: Field: MIC (Shigella flexneri ATCC 12022). Entry: "CC[C@H]1OC(=O)[C@H](C)[C@@H](O[C@H]2C[C@@](C)(OC)[C@@H](O)[C@H](C)O2)[C@H](C)[C@@H](O[C@@H]2O[C@H](C)C[C@H](N(C)C)[C@H]2O)[C@](C)(OC)C[C@@H](C)NC(=O)[C@H](C)[C@@H](O)[C@]1(C)O"
Result: 4
